- target: Oxysterols receptor LXR-alpha (Homo sapiens)
- Sequence (Q13133 whole entry): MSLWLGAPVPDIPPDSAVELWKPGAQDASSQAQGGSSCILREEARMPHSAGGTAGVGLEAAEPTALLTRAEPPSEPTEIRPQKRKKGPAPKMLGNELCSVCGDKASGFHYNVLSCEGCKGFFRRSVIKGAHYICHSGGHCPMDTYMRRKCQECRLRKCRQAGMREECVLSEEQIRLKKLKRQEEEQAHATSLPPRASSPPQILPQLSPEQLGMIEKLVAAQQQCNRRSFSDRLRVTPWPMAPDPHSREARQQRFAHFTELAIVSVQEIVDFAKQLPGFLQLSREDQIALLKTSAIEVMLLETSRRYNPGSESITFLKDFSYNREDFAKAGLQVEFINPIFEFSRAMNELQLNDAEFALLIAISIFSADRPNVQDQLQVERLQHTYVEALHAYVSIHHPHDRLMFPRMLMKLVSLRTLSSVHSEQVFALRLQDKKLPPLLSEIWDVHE
- measurement-notes: Agonist activity against human LXRalpha expressed in human HEK293T cells co-expressing CMX-GAL4N-hLXRalpha incubated for 24 hrs by reporter gene assay
pEC50: −log10 of the molar value.
// condition not met strictly below 6 in pEC50; condition met otherwise

compound | category-label
CCC[Si](CCC)(CCC)c1ccc(C(O)(C(F)(F)F)C(F)(F)F)cc1 | condition met
C[Si](O)(c1ccccc1)c1ccc(C(O)(C(F)(F)F)C(F)(F)F)cc1 (configuration not stated) | condition not met
C=C[Si](C)(C)c1ccc(C(O)(C(F)(F)F)C(F)(F)F)cc1 | condition not met
C[Si](C)(c1ccccc1)c1ccc(C(O)(C(F)(F)F)C(F)(F)F)cc1 | condition not met
C=CC[Si](C)(C)c1ccc(C(O)(C(F)(F)F)C(F)(F)F)cc1 | condition met

----------
- target: Oxysterols receptor LXR-beta (Homo sapiens, UniProt P55055)
- Sequence (P55055 whole entry): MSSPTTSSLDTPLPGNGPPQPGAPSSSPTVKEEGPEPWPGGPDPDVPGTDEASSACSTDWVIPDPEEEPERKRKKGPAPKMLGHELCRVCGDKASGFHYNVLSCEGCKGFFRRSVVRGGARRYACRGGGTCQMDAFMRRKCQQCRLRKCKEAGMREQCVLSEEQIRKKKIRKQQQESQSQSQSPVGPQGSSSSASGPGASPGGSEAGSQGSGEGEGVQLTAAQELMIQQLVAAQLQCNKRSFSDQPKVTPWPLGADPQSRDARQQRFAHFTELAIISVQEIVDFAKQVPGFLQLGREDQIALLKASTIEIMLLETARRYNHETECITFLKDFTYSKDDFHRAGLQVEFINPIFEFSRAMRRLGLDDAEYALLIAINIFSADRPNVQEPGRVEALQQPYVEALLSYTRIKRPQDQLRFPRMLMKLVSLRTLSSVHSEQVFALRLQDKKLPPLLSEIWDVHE
- measurement-notes: Agonist activity against human LXRbeta expressed in human HEK293T cells co-expressing CMX-GAL4N-hLXRbeta incubated for 24 hrs by reporter gene assay
Listing of recorded EC50 by entry.
readout-kind: EC50 (µM)

molecule | target | readout-kind | measured-number
CCC[Si](CCC)(CCC)c1ccc(C(O)(C(F)(F)F)C(F)(F)F)cc1 | Oxysterols receptor LXR-beta (Homo sapiens, UniProt P55055) | EC50 | 0.59
CC(C)(C)[Si](C)(C)c1ccc(C(O)(C(F)(F)F)C(F)(F)F)cc1 | Oxysterols receptor LXR-beta (Homo sapiens, UniProt P55055) | EC50 | 0.65
C[Si](C)(CCCO)c1ccc(C(O)(C(F)(F)F)C(F)(F)F)cc1 | Oxysterols receptor LXR-beta (Homo sapiens, UniProt P55055) | EC50 | 4.03
CC[Si](C)(CC)c1ccc(C(O)(C(F)(F)F)C(F)(F)F)cc1 | Oxysterols receptor LXR-beta (Homo sapiens, UniProt P55055) | EC50 | 0.69
C[Si](C)(CCO)c1ccc(C(O)(C(F)(F)F)C(F)(F)F)cc1 | Oxysterols receptor LXR-beta (Homo sapiens, UniProt P55055) | EC50 | 1.73
C[Si](C)(C)[Si](C)(C)c1ccc(C(O)(C(F)(F)F)C(F)(F)F)cc1 | Oxysterols receptor LXR-beta (Homo sapiens, UniProt P55055) | EC50 | 0.51
C[Si](C)(c1ccc(C(O)(C(F)(F)F)C(F)(F)F)cc1)C1CCCCC1 | Oxysterols receptor LXR-beta (Homo sapiens, UniProt P55055) | EC50 | 0.74
CC[Si](CC)(CC)c1ccc(C(O)(C(F)(F)F)C(F)(F)F)cc1 | Oxysterols receptor LXR-beta (Homo sapiens, UniProt P55055) | EC50 | 0.53
C=C[Si](C)(C)c1ccc(C(O)(C(F)(F)F)C(F)(F)F)cc1 | Oxysterols receptor LXR-beta (Homo sapiens, UniProt P55055) | EC50 | 1.8
C=CC[Si](C)(C)c1ccc(C(O)(C(F)(F)F)C(F)(F)F)cc1 | Oxysterols receptor LXR-beta (Homo sapiens, UniProt P55055) | EC50 | 0.45
C[Si](C)(C)c1ccc(C(O)(C(F)(F)F)C(F)(F)F)cc1 | Oxysterols receptor LXR-beta (Homo sapiens, UniProt P55055) | EC50 | 1.41
CC(O)[Si](C)(C)c1ccc(C(O)(C(F)(F)F)C(F)(F)F)cc1 (configuration not stated) | Oxysterols receptor LXR-beta (Homo sapiens, UniProt P55055) | EC50 | 3.34
C[Si](C)(c1ccccc1)c1ccc(C(O)(C(F)(F)F)C(F)(F)F)cc1 | Oxysterols receptor LXR-beta (Homo sapiens, UniProt P55055) | EC50 | 0.74
OC(c1ccc([Si](Cc2ccccc2)(Cc2ccccc2)Cc2ccccc2)cc1)(C(F)(F)F)C(F)(F)F | Oxysterols receptor LXR-beta (Homo sapiens, UniProt P55055) | EC50 | 1.98
C[Si](C)(Cc1ccccc1)c1ccc(C(O)(C(F)(F)F)C(F)(F)F)cc1 | Oxysterols receptor LXR-beta (Homo sapiens, UniProt P55055) | EC50 | 0.72
C[Si](O)(c1ccccc1)c1ccc(C(O)(C(F)(F)F)C(F)(F)F)cc1 (configuration not stated) | Oxysterols receptor LXR-beta (Homo sapiens, UniProt P55055) | EC50 | 5.03
CCCC[Si](C)(C)c1ccc(C(O)(C(F)(F)F)C(F)(F)F)cc1 | Oxysterols receptor LXR-beta (Homo sapiens, UniProt P55055) | EC50 | 1.7

----------
- target: Oxysterols receptor LXR-alpha (Homo sapiens)
- measurement-notes: Agonist activity against human LXRalpha expressed in human HEK293T cells co-expressing CMX-GAL4N-hLXRalpha incubated for 24 hrs by reporter gene assay
pEC50: −log10 of the molar value.

compound | pEC50
CC(C)(C)[Si](C)(C)c1ccc(C(O)(C(F)(F)F)C(F)(F)F)cc1 | 5.95
OC(c1ccc([Si](Cc2ccccc2)(Cc2ccccc2)Cc2ccccc2)cc1)(C(F)(F)F)C(F)(F)F | 5.30
C[Si](C)(C)[Si](C)(C)c1ccc(C(O)(C(F)(F)F)C(F)(F)F)cc1 | 6.24
C[Si](C)(CCCO)c1ccc(C(O)(C(F)(F)F)C(F)(F)F)cc1 | 5.35
CC[Si](C)(CC)c1ccc(C(O)(C(F)(F)F)C(F)(F)F)cc1 | 6.23
C[Si](C)(c1ccc(C(O)(C(F)(F)F)C(F)(F)F)cc1)C1CCCCC1 | 5.84
C[Si](C)(C)c1ccc(C(O)(C(F)(F)F)C(F)(F)F)cc1 | 5.51
CC(O)[Si](C)(C)c1ccc(C(O)(C(F)(F)F)C(F)(F)F)cc1 (stereo not given) | 5.35
CC[Si](CC)(CC)c1ccc(C(O)(C(F)(F)F)C(F)(F)F)cc1 | 6.21
CCCC[Si](C)(C)c1ccc(C(O)(C(F)(F)F)C(F)(F)F)cc1 | 5.63

Reference source: ChEMBL document CHEMBL5143705
